Could you please report measured %Inh for the items listed next?
Test system: MEK2;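 also: KINOMEscan kinase panel screen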
Construct: gene MAP2K2
Conditions: concentration: 1 μM, replicates: in singlicate; n = 1
Give bare numbers, in %.

Compound | Tested on | %Inh / %
COc1ccc(Nc2nccc(NCCNC(=O)c3cc4ccccc4s3)n2)cc1 | MEK2 | 0
Cc1cccc(Nc2nc(N[C@H]3CCNC3)ncc2C(N)=O)c1.Cl | MEK2 | 31

Answer for every listed entry: what is its %Inh? The entries follow.
1. CC(=O)Nc1nc2cnc(Nc3cc(NC(=O)c4cccc(C5(C#N)CC5)c4Cl)ccc3C)nc2s1
2. COc1cc(Nc2nccc(N3CCC(NC(=O)c4cc5ccccc5s4)C3)n2)cc(OC)c1OC (centres unmarked)
3. Cl.Cl.NCC(NC(=O)c1cc(-c2ccccc2)c(-c2ccnc3[nH]ccc23)s1)c1ccccc1 (centres unmarked)

### Response
1: 0; 2: 0; 3: 0

Where do these numbers come from? They come from paper PMC5540273.
